Reference source for all entries: the SangsterLogP compilation

procedureSummary: method code SF, from PMID: 6889867
recordedConditions: pH 7.4
experimentalReadout: logD
Answers are plain numbers.

Endpoint output: logD of "COc1c(Cl)cc(Cc2cnc(N)nc2N)cc1Cl" . Value?
2.59

---

procedureSummary: method code SF-AS, from PMID: 6889867
Ranges used to classify logP: range 1 = under 1, range 2 = from 1 up to 2, range 3 = 2 and over

Recorded results for 8 molecules are shown here.
1) CN(C)c1cc(Cc2cnc(N)nc2N)cc(N(C)C)c1 range 2
2) COc1cc(Cc2cnc(N)nc2N)cc(OC)c1C(=O)N(C)C range 1
3) CCOc1c(OC)cc(Cc2cnc(N)nc2N)cc1OC range 2
4) COc1cccc(Cc2cnc(N)nc2N)c1 range 2
5) COc1ccc(Cc2cnc(N)nc2N)cc1OC range 1
6) COc1cc(Cc2cnc(N)nc2N)cc(OC)c1OCc1ccccc1 range 3
7) COc1cc(Cc2cnc(N)nc2N)ccc1OCc1ccccc1 range 3
8) Cc1c(N(C)C)cc(Cc2cnc(N)nc2N)cc1N(C)C range 3

Which category fits this record: "COc1cc(C)c(Cc2cnc(N)nc2N)cc1OC"
range 2

Sort into band: "COc1cc(Cc2cnc(N)nc2N)ccc1O"
range 1

For "COc1cc(Cc2cnc(N)nc2N)cc(OC)c1OCC#N" , which logP bin applies?
range 1

Which category fits this record: "COc1cc(Cc2cnc(N)nc2N)cc(OC)c1SC"
range 2

---

procedureSummary: method code SF-AS, from PMID: 6889867
Exercise: state measured logP for each of the compounds provided.

For each listed entry, give its logP.
1. COc1cc(OC)c(OC)cc1Cc1cnc(N)nc1N
2. COc1ccc(Cc2cnc(N)nc2N)cc1OCc1ccccc1
3. COCCOc1c(OC)cc(Cc2cnc(N)nc2N)cc1OC
4. CCOC(=O)c1c(OC)cc(Cc2cnc(N)nc2N)cc1OC
5. COc1c(C)cc(Cc2cnc(N)nc2N)cc1C
6. CCOc1cc(Cc2cnc(N)nc2N)cc(OCC)c1C(=O)CS(C)(=O)=O
7. CNc1cc(Cc2cnc(N)nc2N)cc(NC)c1

1.17
2.44
0.56
1.25
2.19
0.79
0.44

Please report logP for every entry that follows.
1. C=C(C)c1c(OC)cc(Cc2cnc(N)nc2N)cc1OCC
2. COc1cc(Cc2cnc(N)nc2N)ccc1C(C)(C)O
3. COc1cc(Cc2cnc(N)nc2N)cc(OC)c1Cl
4. CNc1cc(Cc2cnc(N)nc2N)cc(N(C)C(C)=O)c1C
5. COc1c(O)cc(Cc2cnc(N)nc2N)cc1O
6. COc1cc(Cc2cnc(N)nc2N)cc(O)c1O

1. 2.65
2. 1.38
3. 1.87
4. 0.53
5. -0.04
6. -0.31

Report logP for every entry below.
1. COc1cc(Cc2cnc(N)nc2N)cc(OC)c1C(=O)OC(C)C
2. COc1cc(Cc2cnc(N)nc2N)cc(OCc2ccccc2)c1OC

1. 1.72
2. 2.37

// each compound listed below needs its logP
1. COc1cc(Cc2cnc(N)nc2N)cc(OC)c1CO
2. COCc1c(OC)cc(Cc2cnc(N)nc2N)cc1OC
3. COc1cc(Cc2cnc(N)nc2N)cc(OC)c1-n1cccc1
4. COc1cc(Cc2cnc(N)nc2N)cc(OC)c1C(=O)CS(C)(=O)=O
5. COc1cc(Cc2cnc(N)nc2N)cc(OC)c1O
6. Nc1ccc(Cc2cnc(N)nc2N)cc1
7. COc1cc(C)c(Cc2cnc(N)nc2N)cc1OCc1ccccc1
8. COc1cc(Cc2cnc(N)nc2N)cc(C)c1OC

[0.42, 1.19, 1.78, -0.31, 0.37, 0.22, 2.69, 1.62]

Hi there! I need logP for each item below, if you can.
1. CCCCOc1cc(Cc2cnc(N)nc2N)c(C)cc1OC
2. CCSc1c(OC)cc(Cc2cnc(N)nc2N)cc1OC
3. COC(=O)COc1c(OC)cc(Cc2cnc(N)nc2N)cc1OC

[2.78, 1.79, 0.55]
